Source listed as ChEMBL document CHEMBL4680379.

target: N-terminal Xaa-Pro-Lys N-methyltransferase 1 (Homo sapiens); test: Inhibition of NTMT1 in human HT29 cells assessed as decrease in me3-RCC1 level incubated for 3 days by Western blot analysis; format: cell-based, HT-29
recorded_endpoint: pIC50
Answers are plain numbers, as −log10 of the molar value.

Problem: Quickly give me recorded pIC50 for "NCCCC[C@H](NC(=O)[C@@H]1CCCN1C(=O)Cc1cccc2ccccc12)C(=O)Nc1ccccc1C(N)=O"
Result: 4.52

----------
target: N-terminal Xaa-Pro-Lys N-methyltransferase 1 (Homo sapiens) (UniProt Q9BV86); assay: Inhibition of NTMT1 in human HCT116 cells assessed as decrease in me3-SPK level at 300 uM incubated for 3 days by Western blot analysis relative to control; type: cell-based; settings: HCT-116, time 3.0 day
Sequence (Q9BV86 whole entry): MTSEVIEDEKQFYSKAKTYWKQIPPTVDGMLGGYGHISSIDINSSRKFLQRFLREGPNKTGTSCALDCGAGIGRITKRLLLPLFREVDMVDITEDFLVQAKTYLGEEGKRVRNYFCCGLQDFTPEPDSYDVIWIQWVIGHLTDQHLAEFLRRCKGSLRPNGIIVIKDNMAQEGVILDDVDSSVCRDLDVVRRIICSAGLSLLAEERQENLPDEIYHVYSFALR
recorded_endpoint: inhibition (%)
One number for each entry, in %.

Worked cases, inhibition given:
NCCCC[C@H](NC(=O)[C@@H]1CCCN1C(=O)Cc1cccc2ccccc12)C(=O)Nc1ccccc1 = 55
CN(C(=O)[C@H](CCCCN)NC(=O)[C@@H]1CCCN1C(=O)Cc1cccc2ccccc12)[C@@H](CCCCN)C(N)=O = 48
N=C(N)NCCC[C@H](NC(=O)[C@H](CCCCN)NC(=O)[C@@H]1CCCN1C(=O)Cc1cccc2ccccc12)C(N)=O = 10

Now for a further compound.
Problem: Read off the recorded inhibition for "NCCCC[C@H](NC(=O)[C@@H]1CCCN1C(=O)Cc1cccc2ccccc12)C(=O)Nc1cccc(C(N)=O)c1"
Result: 57
